# Test system: Rattus norvegicus
# Protocol text: Induction of diuresis in Rattus norvegicus albino (rat) assessed as urinary Na+ excretion at 20 mg/kg, po measured at 5-18 hr after drug administration by standard Lipschitz method (reference value: 0.65+/-0.006 mEq/L)
# Assay type: functional, Urine
This listing pairs compounds with measured log10 Activity.
Please keep in mind that the values are log10 of Activity expressed in mEq/L.

Example compounds with recorded log10 Activity:
- Compound: "COc1cc(C2CC(c3ccc(Cl)cc3)=NN2C(=O)COc2ccccc2)ccc1OCC(=O)O (configuration not stated)"
  Readout label: "log10 Activity"
  Result value: 0.58
- Compound: "COc1cc(C2CC(c3ccc(Cl)cc3)=NN2C(=O)Cc2ccccc2)ccc1OCC(=O)O (configuration not stated)"
  Readout label: "log10 Activity"
  Result value: 0.46

Problem: Please report log10 Activity for the following compound: COc1cc(C2CC(c3ccccc3)=NN2C(=O)c2ccccc2O)ccc1OCC(=O)O (configuration not stated)
Solution: -0.80

Problem: Please report log10 Activity for the following compound: COc1cc(C2CC(c3ccc(O)cc3)=NN2C(=O)c2ccc(Cl)cc2)ccc1OCC(=O)O (configuration not stated)
Solution: 0.29

Problem: Please report log10 Activity for the following compound: COc1cc(C2CC(c3ccc(Cl)cc3)=NN2C(=O)c2ccc(Cl)cc2)ccc1OCC(=O)O (configuration not stated)
Solution: 0.51
